target or test system: IRAK4 (Homo sapiens)
Construct: endogenous in cells; host or cells: THP-1 cells
Sequence (Q9NWZ3 1-460): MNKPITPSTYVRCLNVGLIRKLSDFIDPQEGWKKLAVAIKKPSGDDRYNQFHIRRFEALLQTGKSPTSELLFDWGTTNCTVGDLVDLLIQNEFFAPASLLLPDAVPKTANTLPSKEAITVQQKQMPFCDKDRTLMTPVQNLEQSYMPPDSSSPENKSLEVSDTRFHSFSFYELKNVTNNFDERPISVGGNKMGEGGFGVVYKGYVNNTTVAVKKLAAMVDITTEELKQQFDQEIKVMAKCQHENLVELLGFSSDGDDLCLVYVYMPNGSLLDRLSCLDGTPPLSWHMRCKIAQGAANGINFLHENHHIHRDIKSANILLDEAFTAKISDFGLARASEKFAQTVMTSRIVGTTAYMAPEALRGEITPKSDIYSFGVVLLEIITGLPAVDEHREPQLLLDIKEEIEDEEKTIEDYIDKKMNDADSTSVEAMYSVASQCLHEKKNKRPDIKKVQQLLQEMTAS
test: LVL THP1 HTRF (THP1 Homogeneous Time Resolved Fluorescence)
Type: cell-based
study conditions: THP1 cells, 18 h incubation with compound
Recorded LVL THP1 HTRF YMIN for the following compounds
Quick note: number first, unit second.

Examples with answers:
# compound, target or test system, LVL THP1 HTRF YMIN
rows = [
    ("C[C@H](C#N)Nc1cc(-n2ncc3cc(C#N)cnc32)ncc1-n1cc([C@H]2CC[C@H](CCN3CC[C@H](c4ccc([C@@]5(C)CCC(=O)NC5=O)cc4)C[C@H]3C)CC2)nn1 (single isomer, unassigned)", "IRAK4 (Homo sapiens)", "1.0%"),
    ("C[C@H](C#N)Nc1cc(-n2ncc3cc(C#N)cnc32)ncc1-n1cc([C@H]2CC[C@H](CCN3CCC(c4cn(C5CCC(=O)NC5=O)nn4)CC3)CC2)nn1 (stereo partly drawn)", "IRAK4 (Homo sapiens)", "8.9%"),
]

Please turn your attention to the following entry.
Which LVL THP1 HTRF YMIN is reported for this compound? N#Cc1cnc2c(cnn2-c2cc(NC3CCOCC3)c(-n3cc([C@H]4CC[C@H](CCN5CCN(c6ccc(C7CCC(=O)NC7=O)cc6)CC5)CC4)nn3)cn2)c1 (stereo partly drawn)
1.7%

---

target or test system: IRAK4 (Homo sapiens)
Construct: endogenous in cells; host or cells: THP-1 cells
test: LVL THP1 HTRF (THP1 Homogeneous Time Resolved Fluorescence)
Type: cell-based
study conditions: THP1 cells, 18 h incubation with compound, read-out: LVL THP1 HTRF EC50
quantity kind: DC50 (nM)
Your answer should be a plain number; it is taken to be in nM.

Solved entries:
# compound, measurement units, DC50
records = [
    ("C[C@H](C#N)Nc1cc(-n2ncc3cc(C#N)cnc32)ncc1-n1cc([C@H]2CC[C@H](CCN3CC[C@H]4[C@@H]3CCN4c3ccc(C4CCC(=O)NC4=O)cc3)CC2)nn1 (single isomer, unassigned) [P-325]", "nM", 3.8),
    ("C[C@H](C#N)Nc1cc(-n2ncc3cc(C#N)cnc32)ncc1-n1cc([C@H]2CC[C@H](CCN3CC[C@H]4[C@@H]3CCN4c3ccc([C@@]4(C)CCC(=O)NC4=O)nc3)CC2)nn1 (single isomer, unassigned) [P-288]", "nM", 7.1),
    ("C[C@H](C#N)Nc1cc(-n2ncc3cc(C#N)cnc32)ncc1-c1cc([C@H]2CC[C@H](CCN3CCN(c4ccc(C5CCC(=O)NC5=O)cc4)CC3)CC2)no1 (some centres unmarked)", "nM", 3),
]

# input compound: C[C@H](C#N)Nc1cc(-n2ncc3cc(C#N)cnc32)ncc1C(=O)N[C@H]1CC[C@H](CCN2CC[C@H](c3ccc([C@@]4(C)CCC(=O)NC4=O)cc3)C[C@H]2C)CC1 ; wanted: its DC50
6.5

DC50 for CC1CN(CC[C@H]2CC[C@H](NC(=O)c3cnc(-n4ncc5cc(C#N)cnc54)cc3N[C@H](C)C#N)CC2)CCC1c1ccc([C@@]2(C)CCC(=O)NC2=O)cc1 (some centres unmarked) ?
10.3
